System: A549 human lung adenocarcinoma cells
Assay Context: A549 cells, 24 h, MTT
Value Type: pIC50
Schema: pIC50 number; meaning minus log10 of the concentration expressed in molar units.

Determine its reported pIC50: N.N.[Cl][Pt][Cl] [CP, cisplatin, reference compound]
4.93

###

System: A549 agarose-based spheroids
Assay Remarks: LDH release cytotoxicity assay in A549 3D spheroids
Format: cell-based, human
Assay Context: 100 µM, 24 h
Reported values of LDH release (cytotoxicity) for individual entries
Quick note: give the figure in %, leave out the unit.

Smiles Notation: C/C(=N/O)c1ccc(N(CCC(=O)O)c2nc(-c3ccc(Cl)cc3)cs2)cc1
Number: 40.6
--
Smiles Notation: C/C(=N/O)c1ccc(N(CCC(=O)NN)c2nc(-c3ccc(Cl)cc3)cs2)cc1
Number: 89.9
--
Smiles Notation: C/C(=N/O)c1ccc(N(CCC(=O)O)c2nc(-c3ccccc3)cs2)cc1
Number: 66.7

Proceed to the following item.
# return LDH release (cytotoxicity) of C/C(=N/O)c1ccc(N(CCC(=O)NN)c2nc(-c3ccccc3)cs2)cc1 (system: A549 agarose-based spheroids)
72.1
